- ASSAYED_TARGET: Streptavidin (Streptomyces avidinii, UniProt P22629)
- Sequence (P22629 25-183): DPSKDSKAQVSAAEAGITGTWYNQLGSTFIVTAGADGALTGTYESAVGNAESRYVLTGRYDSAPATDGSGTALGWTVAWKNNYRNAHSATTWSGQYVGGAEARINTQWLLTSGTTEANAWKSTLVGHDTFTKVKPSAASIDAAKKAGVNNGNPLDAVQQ
- PROCEDURE_TEXT: Streptavidin-APC staining of HEK 293T cells transfected with tag constructs, flow cytometry
- Format: cell-based
- RUN_CONDITIONS: tag on CD8 stalk, 48 hrs post-transfection
MEASURE_NAME: binding to Streptavidin-APC

1) Flankedccstreptag: biotin mimic tag AECHPQGPPCIEGRK (SEQ ID NO: 2) expressed at the cell surface as tagging protein (Biotin mimicking peptide, flankedccstreptag) ... successfully bound
2) biotin mimicking peptide WSHPQFEK (SEQ ID NO: 1) [streptagll] ... successfully bound
3) disulphide constrained biotin mimicking peptide CHPQGPPC (SEQ ID NO: 3) [ccstreptag] ... successfully bound
